# Test system: clinical isolates of multidrug-resistant Klebsiella pneumoniae (and ATCC43816)
# method-notes: MIC determination at Fidelta, clinical isolates
# Format: cell-based
# assay-conditions: Klebsiella pneumoniae, ATCC43816, KP-2027; Tracheal aspirate/ESBL, OXA-48, ColR
measured-metric: MIC90 (µg/mL)

- NC[C@H]1O[C@H](O[C@H]2[C@H](O)[C@@H](O[C@H]3O[C@H](CO)[C@@H](O)[C@H](N)[C@H]3O)[C@H](N)C[C@@H]2N)[C@H](N)C[C@@H]1O: 16
- NCC[C@H](O)C(=O)N[C@@H]1C[C@H](N)[C@@H](O[C@H]2O[C@H](CN)[C@@H](O)[C@H](O)[C@H]2O)[C@H](O)[C@H]1O[C@H]1O[C@H](CO)[C@@H](O)[C@H](N)[C@H]1O [Amikacin, amikacin, reference compound]: 4
- C[C@@H](O)[C@H]1C(=O)N2C(C(=O)O)=C(S[C@@H]3CN[C@H](C(=O)N(C)C)C3)[C@H](C)[C@H]12 [Meropenem, meropenem, reference compound]: 4

###

Consider the following molecules and their measured MIC90 readings.
# System: clinical isolates of Vancomycin-resistant Enterococcus faecium (VRE)
# method-notes: MIC determination at Fidelta, clinical isolates
# Assay type: cell-based
# assay-conditions: VRE-2010, Urine
measured-metric: MIC90 (µg/mL)

- N=C(NC[C@@H]1CCCN1)NC1[C@@H](O)C(OC2[C@@H](F)[C@H](O[C@H]3OC(CN)[C@@H](O)CC3N)C(N)C[C@H]2NC(=O)[C@@H](O)CCN)O[C@H](CO)[C@H]1O (stereo partly drawn): 8
- N=C(NC[C@@H]1CCNC1)NC1[C@@H](O)C(OC2[C@@H](F)[C@H](O[C@H]3OC(CN)[C@@H](O)CC3N)C(N)C[C@H]2NC(=O)[C@@H](O)CCN)O[C@H](CO)[C@H]1O (stereo partly drawn): 8
- N=C(N)NC1C(O)[C@@H](CO)OC(OC2C(F)[C@H](O[C@H]3OC(CN)[C@@H](O)CC3N)C(N)C[C@H]2NC(=O)[C@@H](O)CCN)[C@@H]1O (stereo partly drawn): 8

###

# Tested on: E. coli (APH(3′)IIIa)
# method-notes: MIC 50, broth micro-dilution, E. coli expressing APH(3′)IIIa
# Assay type: cell-based, Escherichia coli
# assay-conditions: Escherichia coli, ATCC25922, ATCC25922 harboring plasmid encoding APH(3′)IIIa
Consider the following compounds and their measured MIC50 readings.
measured-metric: MIC50 (µM)

- N=C(NC[C@@H]1CCCN1)NC1[C@@H](O)C(OC2[C@@H](F)[C@H](O[C@H]3OC(CN)[C@@H](O)CC3N)C(N)C[C@H]2NC(=O)[C@@H](O)CCN)O[C@H](CO)[C@H]1O (stereo partly shown): 0.25
- N=C(NCCCO)NC1[C@@H](O)C(OC2[C@@H](F)[C@H](O[C@H]3OC(CN)[C@@H](O)CC3N)C(N)C[C@H]2NC(=O)[C@@H](O)CCN)O[C@H](CO)[C@H]1O (stereo partly shown) [ABX5041, Tobra-AHB-F-Gua 3-hydroxy-propyl]: 0.5
- N=C(NC[C@@H]1CCNC1)NC1[C@@H](O)C(OC2[C@@H](F)[C@H](O[C@H]3OC(CN)[C@@H](O)CC3N)C(N)C[C@H]2NC(=O)[C@@H](O)CCN)O[C@H](CO)[C@H]1O (stereo partly shown): 0.25
- N=C(NCCN)NC1C(O)[C@@H](CO)OC(OC2C(F)[C@H](O[C@H]3OC(CN)[C@@H](O)CC3N)C(N)C[C@H]2NC(=O)[C@@H](O)CCN)[C@@H]1O (stereo partly shown): 0.5
